# STUDY TARGET: Ste12 (UniProt P13574)
# Sequence (P13574 whole entry): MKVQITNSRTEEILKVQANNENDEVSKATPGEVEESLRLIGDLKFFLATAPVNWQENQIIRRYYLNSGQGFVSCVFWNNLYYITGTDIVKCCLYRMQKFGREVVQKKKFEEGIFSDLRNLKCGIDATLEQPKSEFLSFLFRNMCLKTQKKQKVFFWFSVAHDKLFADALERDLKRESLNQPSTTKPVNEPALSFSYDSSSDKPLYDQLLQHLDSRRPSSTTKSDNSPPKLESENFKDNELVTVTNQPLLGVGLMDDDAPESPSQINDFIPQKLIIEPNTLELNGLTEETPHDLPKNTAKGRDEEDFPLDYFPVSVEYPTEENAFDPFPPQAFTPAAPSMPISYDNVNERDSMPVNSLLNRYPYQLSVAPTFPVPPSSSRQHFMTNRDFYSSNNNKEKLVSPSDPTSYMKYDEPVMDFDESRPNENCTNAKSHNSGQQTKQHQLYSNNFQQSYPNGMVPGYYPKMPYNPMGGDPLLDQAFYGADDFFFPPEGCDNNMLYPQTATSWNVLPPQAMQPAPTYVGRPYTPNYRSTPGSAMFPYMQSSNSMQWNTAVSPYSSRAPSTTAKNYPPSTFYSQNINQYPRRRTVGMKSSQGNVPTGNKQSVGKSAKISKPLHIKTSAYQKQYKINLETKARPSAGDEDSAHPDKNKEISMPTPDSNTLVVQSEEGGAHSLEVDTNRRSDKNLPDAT
# PROCEDURE TEXT: PBM E-score (8-mer binding enrichment) (E-score (-0.5 to 0.5)); higher = stronger / more preferred TF binding
# PROTOCOL CONDITIONS: protein concentration: 200 nM; construct: GST-DNA-binding domain
Over roughly 33,000 sequences, “E-score (-0.5 to 0.5)” has its median near -0.01; the highest 2% begin near 0.26. The sample holds the highest values, similar sequences and a random draw of the others, so the mix is not that of the screen.
REPORTED METRIC: PBM E-score
// return just the number, without any unit appended

Example cases with answers are listed next.
AGGGAGGC ... -0.122
GGTTACAC ... -0.0834
CAGGGCGA ... -0.103

Request: Which PBM E-score reading was recorded for the sequence TGTTATAA ?
Response: 0.283

Request: Which PBM E-score reading was recorded for the sequence CTGTCAAG ?
Response: -0.2

----------
# STUDY TARGET: Ste12 (UniProt P13574)
# PROCEDURE TEXT: PBM E-score (8-mer binding enrichment) (E-score (-0.5 to 0.5)); higher = stronger / more preferred TF binding
# PROTOCOL CONDITIONS: protein concentration: 200 nM; construct: GST-DNA-binding domain
The full ranking holds about 33,000 sequences; the median of “E-score (-0.5 to 0.5)” is about -0.01, and the highest 2% start at about 0.26. The full list was thinned out, with the highest values kept by preference.
Please assign a class to every record based on measured PBM E-score, with ranges c1: < 0.05; c2: ≥ 0.05 and < 0.2; c3: ≥ 0.2

CTGTTTGC ... c1
ATGTTTGG ... c2
CGTTTCCA ... c3

Let us examine a further case.
Request: Where would GTGTTTGA land among the classes by reported PBM E-score?
Response: c3

----------
# STUDY TARGET: Ste12 (UniProt P13574)
# PROCEDURE TEXT: PBM E-score (8-mer binding enrichment) (E-score (-0.5 to 0.5)); higher = stronger / more preferred TF binding
# PROTOCOL CONDITIONS: protein concentration: 200 nM; construct: GST-DNA-binding domain
Whole data set: some 33,000 sequences, median “E-score (-0.5 to 0.5)” near -0.01, cut for the highest 2% near 0.26. What follows is part of a selection rich in the highest values, with near analogues and random picks from the rest.
Please assign a class to every record based on measured PBM E-score, with ranges range 1 = under 0.05, range 2 = from 0.05 up to 0.2, range 3 = 0.2 and over

ATTATCCG ... range 3

Request: Where would GAGTATCC land among the classes by reported PBM E-score?
Response: range 1

Request: Where would AGGTTTCC land among the classes by reported PBM E-score?
Response: range 1

Request: Where would CAGGCGGG land among the classes by reported PBM E-score?
Response: range 2

Request: Where would CGGTTTCA land among the classes by reported PBM E-score?
Response: range 3

Request: Where would ATTATCCA land among the classes by reported PBM E-score?
Response: range 1

Request: Where would CGTAAACA land among the classes by reported PBM E-score?
Response: range 2

Request: Where would ATAAAACG land among the classes by reported PBM E-score?
Response: range 3

Request: Where would GGGGTTCA land among the classes by reported PBM E-score?
Response: range 1

Request: Where would GGTTTTCA land among the classes by reported PBM E-score?
Response: range 3

Request: Where would GTAAAACA land among the classes by reported PBM E-score?
Response: range 3

Request: Where would CTTAAAAA land among the classes by reported PBM E-score?
Response: range 3

Request: Where would ATTAAACG land among the classes by reported PBM E-score?
Response: range 2

Values were extracted from the supplement of paper PMC3334620.
